molecular target: T1, hRET.mmh (human, UniProt P07949 29-635, biotinylated in the ELISA of Example 4 (biot-hRET.mmh); not in the SPR of Example 3); test: SPR Biacore T200, mAb capture, 25 C
T1 construct: also called biot-hRET.mmh; soluble monomeric human RET
Simple rule here: koff less than 0.0002 s⁻¹ is met, otherwise not met.

Would you please look over these solved cases?
1) H4H8058P (antibody, human IgG4, V domains shown, human IgG4 Fc (H4H prefix)) VH: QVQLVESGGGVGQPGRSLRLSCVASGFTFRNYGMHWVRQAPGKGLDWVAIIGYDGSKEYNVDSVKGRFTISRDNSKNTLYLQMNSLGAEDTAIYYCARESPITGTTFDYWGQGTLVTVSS VL: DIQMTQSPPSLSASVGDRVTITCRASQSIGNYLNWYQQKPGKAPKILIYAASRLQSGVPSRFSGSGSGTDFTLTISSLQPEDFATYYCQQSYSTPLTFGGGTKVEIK = not met
2) H4H8062P (antibody, human IgG4, V domains shown, human IgG4 Fc (H4H prefix)) VH: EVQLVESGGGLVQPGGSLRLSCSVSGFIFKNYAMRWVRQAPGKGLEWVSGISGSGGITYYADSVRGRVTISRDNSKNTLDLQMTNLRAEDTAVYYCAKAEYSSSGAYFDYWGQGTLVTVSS VL: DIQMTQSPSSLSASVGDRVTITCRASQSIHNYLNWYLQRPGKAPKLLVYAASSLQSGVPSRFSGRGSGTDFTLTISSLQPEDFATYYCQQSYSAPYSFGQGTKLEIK = not met

Exercise: Strictly below 0.0002 s⁻¹: is that where koff of H4H8085P (antibody, human IgG4, V domains shown, human IgG4 Fc (H4H prefix)) VH: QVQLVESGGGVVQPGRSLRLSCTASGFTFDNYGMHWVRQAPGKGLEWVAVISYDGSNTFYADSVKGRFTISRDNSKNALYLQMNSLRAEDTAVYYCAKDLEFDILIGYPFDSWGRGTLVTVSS VL: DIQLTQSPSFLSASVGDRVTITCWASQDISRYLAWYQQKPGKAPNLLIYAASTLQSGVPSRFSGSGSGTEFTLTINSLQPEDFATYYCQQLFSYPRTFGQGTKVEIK sits?
Key: met

Exercise: Strictly below 0.0002 s⁻¹: is that where koff of H4H8087P (antibody, human IgG4, V domains shown, human IgG4 Fc (H4H prefix)) VH: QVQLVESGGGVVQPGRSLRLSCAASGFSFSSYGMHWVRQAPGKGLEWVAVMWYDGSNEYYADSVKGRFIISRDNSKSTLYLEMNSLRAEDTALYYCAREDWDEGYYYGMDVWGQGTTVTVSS VL: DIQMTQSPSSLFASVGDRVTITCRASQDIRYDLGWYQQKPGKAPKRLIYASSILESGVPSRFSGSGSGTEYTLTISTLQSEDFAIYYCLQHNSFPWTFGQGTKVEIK sits?
Key: not met

Exercise: Strictly below 0.0002 s⁻¹: is that where koff of H4H8080P (antibody, human IgG4, V domains shown, human IgG4 Fc (H4H prefix)) VH: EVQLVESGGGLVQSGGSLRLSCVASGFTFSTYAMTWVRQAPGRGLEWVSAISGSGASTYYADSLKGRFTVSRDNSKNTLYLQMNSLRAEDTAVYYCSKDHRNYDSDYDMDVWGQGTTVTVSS VL: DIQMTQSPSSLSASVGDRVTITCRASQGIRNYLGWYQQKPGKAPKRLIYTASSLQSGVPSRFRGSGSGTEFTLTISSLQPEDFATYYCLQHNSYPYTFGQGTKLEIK sits?
Key: not met
